Test system: Staphylococcus epidermidis
Assay: Antibacterial activity against methicillin-resistant Staphylococcus epidermidis 09R476 by broth microdilution method
Assay type: functional
readout: MIC (µg/mL)
Form entry: value (µg/mL) — number only.

Notebook: CC[C@H]1OC(=O)[C@H](C)C(=O)[C@H](C)[C@@H](O[C@@H]2O[C@H](C)C[C@H](N(C)C)[C@H]2O)[C@](C)(OC)C[C@@H](C)C(=O)[C@H](C)[C@H]2N(CCCCn3cnc(-c4cccnc4)c3)C(=O)O[C@]12C , MIC read as 0.125

Notebook: CC[C@H]1OC(=O)[C@H](C)[C@@H](O[C@H]2C[C@@](C)(OC)[C@@H](O)[C@H](C)O2)[C@H](C)[C@@H](O[C@@H]2O[C@H](C)C[C@H](N(C)C)[C@H]2O)[C@](C)(OC)C[C@@H](C)C(=O)[C@H](C)[C@@H](O)[C@]1(C)O , MIC read as 0.25

Notebook: C=CCO[C@H]1[C@H](N(C)C)[C@@H](O)[C@H](O[C@@H]2[C@@H](C)C(=O)[C@@H](C)C(=O)O[C@H](CC)[C@@]3(C)OC(=O)O[C@H]3[C@@H](C)C(=O)[C@H](C)C[C@@]2(C)OC)O[C@@H]1C , MIC read as 4

Notebook: CC[C@H]1OC(=O)[C@H](C)C(=O)[C@H](C)[C@@H](O[C@@H]2O[C@H](C)[C@@H](OCc3ccccc3)[C@H](N(C)C)[C@H]2O)[C@](C)(OC)C[C@@H](C)C(=O)[C@H](C)[C@@H]2OC(=O)O[C@]12C , MIC read as 32

Notebook: CC[C@H]1OC(=O)[C@H](C)[C@@H](O[C@H]2C[C@@](C)(OC)[C@@H](O)[C@H](C)O2)[C@H](C)[C@@H](O[C@@H]2O[C@H](C)C[C@H](N(C)C)[C@H]2O)[C@](C)(O)C[C@@H](C)C(=O)[C@H](C)[C@@H](O)[C@]1(C)O , MIC read as 0.125

Notebook: CC[C@H]1OC(=O)[C@H](C)C(=O)[C@H](C)[C@@H](O[C@@H]2O[C@H](C)[C@@H](O)[C@H](N(C)C)[C@H]2O)[C@](C)(OC)C[C@@H](C)C(=O)[C@H](C)[C@@H]2OC(=O)O[C@]12C , MIC read as 0.25

---

System: Streptococcus pneumoniae
Test: Antibacterial activity against erythromycin-sensitive Streptococcus pneumoniae 09H065 by broth microdilution method
Type: functional
readout: MIC (µg/mL)
Form entry: value (µg/mL) — number only.

Notebook: CC[C@H]1OC(=O)[C@H](C)C(=O)[C@H](C)[C@@H](O[C@@H]2O[C@H](C)[C@@H](O)[C@H](N(C)C)[C@H]2O)[C@](C)(OC)C[C@@H](C)C(=O)[C@H](C)[C@@H]2OC(=O)O[C@]12C , MIC read as 0.062

Notebook: CC[C@H]1OC(=O)[C@H](C)C(=O)[C@H](C)[C@@H](O[C@@H]2O[C@H](C)[C@@H](OCc3ccccc3)[C@H](N(C)C)[C@H]2O)[C@](C)(OC)C[C@@H](C)C(=O)[C@H](C)[C@@H]2OC(=O)O[C@]12C , MIC read as 4

Notebook: CC[C@H]1OC(=O)[C@H](C)[C@@H](O[C@H]2C[C@@](C)(OC)[C@@H](O)[C@H](C)O2)[C@H](C)[C@@H](O[C@@H]2O[C@H](C)C[C@H](N(C)C)[C@H]2O)[C@](C)(O)C[C@@H](C)C(=O)[C@H](C)[C@@H](O)[C@]1(C)O , MIC read as 0.062

Notebook: CC[C@H]1OC(=O)[C@H](C)C(=O)[C@H](C)[C@@H](O[C@@H]2O[C@H](C)C[C@H](N(C)C)[C@H]2O)[C@](C)(OC)C[C@@H](C)C(=O)[C@H](C)[C@H]2N(CCCCn3cnc(-c4cccnc4)c3)C(=O)O[C@]12C , MIC read as 0.031

Notebook: CC[C@H]1OC(=O)[C@H](C)[C@@H](O[C@H]2C[C@@](C)(OC)[C@@H](O)[C@H](C)O2)[C@H](C)[C@@H](O[C@@H]2O[C@H](C)C[C@H](N(C)C)[C@H]2O)[C@](C)(OC)C[C@@H](C)C(=O)[C@H](C)[C@@H](O)[C@]1(C)O , MIC read as 0.062

Notebook: C=CCO[C@H]1[C@H](N(C)C)[C@@H](O)[C@H](O[C@@H]2[C@@H](C)C(=O)[C@@H](C)C(=O)O[C@H](CC)[C@@]3(C)OC(=O)O[C@H]3[C@@H](C)C(=O)[C@H](C)C[C@@]2(C)OC)O[C@@H]1C , MIC read as 0.5

---

Catalogue of compounds with associated MIC
System: Staphylococcus epidermidis
Assay: Antibacterial activity against methicillin-sensitive Staphylococcus epidermidis 09G291 by broth microdilution method
Type: functional

Consider the following illustrative entries.
[[record]]
molecule = "C=CCO[C@H]1[C@H](N(C)C)[C@@H](O)[C@H](O[C@@H]2[C@@H](C)C(=O)[C@@H](C)C(=O)O[C@H](CC)[C@@]3(C)OC(=O)O[C@H]3[C@@H](C)C(=O)[C@H](C)C[C@@]2(C)OC)O[C@@H]1C"
experimental_system = "Staphylococcus epidermidis"
recorded_measurement = "> 8 µg/mL"

[[record]]
molecule = "CC[C@H]1OC(=O)[C@H](C)[C@@H](O[C@H]2C[C@@](C)(OC)[C@@H](O)[C@H](C)O2)[C@H](C)[C@@H](O[C@@H]2O[C@H](C)C[C@H](N(C)C)[C@H]2O)[C@](C)(O)C[C@@H](C)C(=O)[C@H](C)[C@@H](O)[C@]1(C)O"
experimental_system = "Staphylococcus epidermidis"
recorded_measurement = "> 256 µg/mL"

[[record]]
molecule = "CC[C@H]1OC(=O)[C@H](C)C(=O)[C@H](C)[C@@H](O[C@@H]2O[C@H](C)C[C@H](N(C)C)[C@H]2O)[C@](C)(OC)C[C@@H](C)C(=O)[C@H](C)[C@H]2N(CCCCn3cnc(-c4cccnc4)c3)C(=O)O[C@]12C"
experimental_system = "Staphylococcus epidermidis"
recorded_measurement = "> 64 µg/mL"


Notebook: CC[C@H]1OC(=O)[C@H](C)C(=O)[C@H](C)[C@@H](O[C@@H]2O[C@H](C)[C@@H](O)[C@H](N(C)C)[C@H]2O)[C@](C)(OC)C[C@@H](C)C(=O)[C@H](C)[C@@H]2OC(=O)O[C@]12C , MIC read as > 32 µg/mL

Notebook: CC[C@H]1OC(=O)[C@H](C)C(=O)[C@H](C)[C@@H](O[C@@H]2O[C@H](C)[C@@H](OCc3ccccc3)[C@H](N(C)C)[C@H]2O)[C@](C)(OC)C[C@@H](C)C(=O)[C@H](C)[C@@H]2OC(=O)O[C@]12C , MIC read as > 32 µg/mL

Notebook: CC[C@H]1OC(=O)[C@H](C)[C@@H](O[C@H]2C[C@@](C)(OC)[C@@H](O)[C@H](C)O2)[C@H](C)[C@@H](O[C@@H]2O[C@H](C)C[C@H](N(C)C)[C@H]2O)[C@](C)(OC)C[C@@H](C)C(=O)[C@H](C)[C@@H](O)[C@]1(C)O , MIC read as > 32 µg/mL

These measurements were taken from ChEMBL document CHEMBL2203277.
